Data provenance: paper PMC7860060

- assay-target: anti-Hcit (anti-carbamylation (homocitrulline) polyclonal antibody)
- method-description: ITC titration of peptide into anti-Hcit
- Assay type: binding, rabbits
- run-conditions: peptide into solution containing only anti-Hcit, 25 °C, 0.01 M PBS pH 7.4 containing 50% glycerol and 0.02% NaN3 (control test)
Where no end group is shown, it is not given here.
readout-label: pKd
Worth noting: pKd values are minus log10 of concentrations stated in mol/L.

Task: Quick one: pKd for GSAARTISPSLL [cH2-p1] ?
Result: 3.00

* * *

- assay-target: carbamylated fibrinogen (cFgn) (Bos taurus, UniProt P02672+P02676+P12799, DEL436-444)
- method-description: ITC titration of peptide into cFgn
- Format: binding, bovine
Where no end group is shown, it is not given here.
readout-label: pKd
For clarity, pKd is expressed as the negative log10 of concentration in mol/L.

Task: I am curious: what pKd value has been reported for GSAARTISPSLL [cH2-p1] ?
Result: 4.08
